- protocol: qHTS RealTime-Glo MT Cell Viability Assay in HEK293 cells - 32 hour (AID 1224868); also: nearly all actives have a fitted effect of over 50% in size
- test-parameters: RealTime-Glo luminescence; series mostly up to 76.8 µM
Inconclusive results are not listed. Active and inactive are the calls of the source. Calls follow the shape of the dose curve; as a rule, active = well fitted cell-killing curve with a large enough effect in the repeat runs; inconclusive = weak or mixed curves, or effect the other way; inactive = flat fitted curve, though single readings scatter.
Please state which outcome applies, choosing from yes (active), no (inactive)

>  <molecule>
COc1ccccc1C=O

>  <label-value>
no

$$$$

Ask: Dear all, I need the recorded test outcome for CC(=O)Oc1ccc(C2(c3ccc(OC(C)=O)cc3)C(=O)Nc3ccccc32)cc1 , thank you.
Reply: no

Ask: Dear all, I need the recorded test outcome for C=C(C)CCCC , thank you.
Reply: no

Ask: Dear all, I need the recorded test outcome for Clc1ccc(C(Cn2ccnc2)OCc2ccsc2Cl)c(Cl)c1 (configuration not stated) , thank you.
Reply: yes

Reference for the values: PubChem BioAssay (Tox21)
